A collection of variants and their measured protein stability index
B1: CLK3 (parent)
chain: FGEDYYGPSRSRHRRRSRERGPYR

- Variants of: B1
- assayName: protein stability index of a GFP-peptide fusion (GPS, HEK-293T) (PSI 1-6); higher = more stable;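 note: lentivirally expressed fusions sorted by FACS into six bins by GFP to DsRed ratio, PSI derived from sequencing read proportions per bin multiplied by bin number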
- measurementContext: c terminus: a fixed tail appended
Enter the number alone.

Examples with answers:
P22S; 2.21
Y5R; 5.21

Q: # input variant: E19M ; wanted: its protein stability index
Result: 4.15

Q: Which protein stability index reading was recorded for the variant R12M ?
Result: 2.03

Q: Reported protein stability index, variant Y6E : ____
Result: 4.84

Q: What value of protein stability index has been reported for the following variant? D4P
Result: 3.59

Q: Requested read-out: protein stability index. Entry: R15I
Result: 2.43

Q: So what does the record say about protein stability index for G21E ?
Result: 2.11

Q: So what's the measured protein stability index for this one? R14W
Result: 3.15

Q: Reported protein stability index, variant S9W : ____
Result: 2.17

Q: Value lookup for protein stability index; key = E3A
Result: 3.9

Q: Reported protein stability index, variant R15G : ____
Result: 1.98

Q: What value of protein stability index has been recorded for this entry: Y6W
Result: 2.52
